Taken from ChEMBL document CHEMBL4359894.

experiment: Cmax in Sprague-Dawley rat at 3 mg/kg, iv administered via foot dorsal vein by LC-MS/MS analysis; type: ADME, organism-based; parameters: dose 3 mg/kg, route intravenous; details: in vivo
ENDPOINT: Cmax (ng/mL)

COMPOUND	ENDPOINT	EXPERIMENTAL_RESULT
CCCCCCOc1ccc(N(CC(F)(F)F)S(=O)(=O)[C@H]2C[C@H]3O[C@@H]2C(c2ccc(O)cc2)=C3c2ccc(O)cc2)cc1 (relative stereo)	Cmax	964

====

Reported relative binding affinity (RBA) values follow for various compounds
target: Estrogen receptor (Homo sapiens); assay: Binding affinity to ERalpha (unknown origin) by competitive fluorometric receptor binding assay relative to estradiol
ENDPOINT: relative binding affinity (RBA)

COMPOUND	EXPERIMENTAL_RESULT
CCCCCCOc1ccc(N(CC)S(=O)(=O)[C@H]2C[C@H]3O[C@@H]2C(c2ccc(O)cc2)=C3c2ccc(O)cc2)cc1 (relative stereo)	2.29
CCCCCCOc1ccc(C2=C(c3ccc(O)cc3)[C@H]3O[C@@H]2C[C@@H]3S(=O)(=O)N(CC(F)(F)F)c2ccc(Cl)cc2)cc1 (relative stereo)	3.49
CCCCCCCCOc1ccc(C2=C(c3ccc(O)cc3)[C@H]3O[C@@H]2C[C@@H]3S(=O)(=O)N(CC)c2ccccc2)cc1 (relative stereo)	1.03
CCCCOc1ccc(C2=C(c3ccc(O)cc3)[C@H]3C[C@H](S(=O)(=O)N(CC(F)(F)F)c4ccc(OC)cc4)[C@@H]2O3)cc1 (relative stereo)	2.11
CCCCCCCCCCOc1ccc(C2=C(c3ccc(O)cc3)[C@H]3C[C@H](S(=O)(=O)N(CC(F)(F)F)c4ccc(OC)cc4)[C@@H]2O3)cc1 (relative stereo)	0.85
CCCCCCCCOc1ccc(C2=C(c3ccc(O)cc3)[C@H]3C[C@H](S(=O)(=O)N(CC(F)(F)F)c4ccc(OC)cc4)[C@@H]2O3)cc1 (relative stereo)	1.08
CCCCCCCCCCCCOc1ccc(C2=C(c3ccc(O)cc3)[C@H]3C[C@H](S(=O)(=O)N(CC(F)(F)F)c4ccc(OC)cc4)[C@@H]2O3)cc1 (relative stereo)	0.06
CCCCOc1ccc(C2=C(c3ccc(O)cc3)[C@H]3C[C@H](S(=O)(=O)N(CC(F)(F)F)c4ccc(Cl)cc4)[C@@H]2O3)cc1 (relative stereo)	4.25
CCCCCCCCOc1ccc(C2=C(c3ccc(O)cc3)[C@H]3C[C@H](S(=O)(=O)N(CC(F)(F)F)c4ccc(Cl)cc4)[C@@H]2O3)cc1 (relative stereo)	2.36
CCCCCCCCCCOc1ccc(C2=C(c3ccc(O)cc3)[C@H]3O[C@@H]2C[C@@H]3S(=O)(=O)N(CC(F)(F)F)c2ccc(Cl)cc2)cc1 (relative stereo)	0.57
CCCCOc1ccc(C2=C(c3ccc(O)cc3)[C@H]3O[C@@H]2C[C@@H]3S(=O)(=O)N(CC(F)(F)F)c2ccc(Cl)cc2)cc1 (relative stereo)	1.13
